// data source = paper PMC8222333

Listing of recorded binding signal by entry.
Target: d-enCas12a (Acidaminococcus sp., UniProt U2UMQ6 1-1307, E174R;S542R;K548R;D908A;E993A;D1235A)
Assay: Spec-seq (native PAGE EMSA with sequencing of bound and unbound); 25 mM Tris-HCl pH 7.4, 150 mM KCl, 5 mM MgCl2, 10% glycerol, 1 mM DTT, 40 ng/uL salmon sperm DNA; 400 nM Cas12a, 480 nM crRNA, 50 nM library, 37 C 1 h; native PAGE at room temperature; high values mean tight binding;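 further: relative affinity from the bound to unbound sequence frequency ratio in Spec-seq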
Settings: protein: recombinant
Expressed in lnKA, but write only the number.

BINDER	RECORDED MEASUREMENT
GGAG (dsDNA) DNA 1: GCTATCTAGTGCTCAGTACGCACTGGGAGAGGAAACTTCTGGCAGGACCAGGTCATGAGATCGGAAGAGCACACGTCTGAACTCCAGTCA DNA 2: TGACTGGAGTTCAGACGTGTGCTCTTCCGATCTCATGACCTGGTCCTGCCAGAAGTTTCCTCTCCCAGTGCGTACTGAGCACTAGATAGC RNA: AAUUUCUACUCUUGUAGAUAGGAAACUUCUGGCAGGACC	-5.85
GCCA (dsDNA) DNA 1: GCTATCTAGTGCTCAGTACGCACTGGCCAAGGAAACTTCTGGCAGGACCAGGTCATGAGATCGGAAGAGCACACGTCTGAACTCCAGTCA DNA 2: TGACTGGAGTTCAGACGTGTGCTCTTCCGATCTCATGACCTGGTCCTGCCAGAAGTTTCCTTGGCCAGTGCGTACTGAGCACTAGATAGC RNA: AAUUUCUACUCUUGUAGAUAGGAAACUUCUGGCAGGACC	-4.72
AGGT (dsDNA) DNA 1: GCTATCTAGTGCTCAGTACGCACTGAGGTAGGAAACTTCTGGCAGGACCAGGTCATGAGATCGGAAGAGCACACGTCTGAACTCCAGTCA DNA 2: TGACTGGAGTTCAGACGTGTGCTCTTCCGATCTCATGACCTGGTCCTGCCAGAAGTTTCCTACCTCAGTGCGTACTGAGCACTAGATAGC RNA: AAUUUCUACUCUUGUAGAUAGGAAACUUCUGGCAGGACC	-5.71
TGTC (dsDNA) DNA 1: GCTATCTAGTGCTCAGTACGCACTGTGTCAGGAAACTTCTGGCAGGACCAGGTCATGAGATCGGAAGAGCACACGTCTGAACTCCAGTCA DNA 2: TGACTGGAGTTCAGACGTGTGCTCTTCCGATCTCATGACCTGGTCCTGCCAGAAGTTTCCTGACACAGTGCGTACTGAGCACTAGATAGC RNA: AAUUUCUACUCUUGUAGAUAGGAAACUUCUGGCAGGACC	-0.999

Sample TGAA (dsDNA) DNA 1: GCTATCTAGTGCTCAGTACGCACTGTGAAAGGAAACTTCTGGCAGGACCAGGTCATGAGATCGGAAGAGCACACGTCTGAACTCCAGTCA DNA 2: TGACTGGAGTTCAGACGTGTGCTCTTCCGATCTCATGACCTGGTCCTGCCAGAAGTTTCCTTTCACAGTGCGTACTGAGCACTAGATAGC RNA: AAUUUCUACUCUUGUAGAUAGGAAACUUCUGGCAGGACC ; binding signal observed: -5.68
